What IC50 was measured for each of the following?
Target: P2X4 (Homo sapiens, UniProt Q99571)
Sequence (Q99571 1-388): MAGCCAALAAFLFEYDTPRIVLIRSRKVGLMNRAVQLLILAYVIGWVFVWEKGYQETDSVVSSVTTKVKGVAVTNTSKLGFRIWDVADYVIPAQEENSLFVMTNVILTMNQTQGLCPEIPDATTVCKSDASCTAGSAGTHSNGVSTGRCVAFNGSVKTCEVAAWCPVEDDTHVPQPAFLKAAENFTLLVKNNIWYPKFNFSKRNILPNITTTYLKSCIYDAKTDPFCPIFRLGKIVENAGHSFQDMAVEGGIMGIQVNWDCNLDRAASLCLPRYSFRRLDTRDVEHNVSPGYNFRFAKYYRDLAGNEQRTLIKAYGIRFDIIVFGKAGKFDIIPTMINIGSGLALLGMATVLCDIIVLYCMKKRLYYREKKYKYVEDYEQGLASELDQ
Experiment: Assay B: human P2X4 receptor cell line, mitochondrial photina luminescence (agonist Bz-ATP at EC50)
Assay type: cell-based
Parameters: host or cells: HEK 293 (recombinant, constitutively expressing; with mitochondrial photina in Assay B)
Details: HEK human P2X4 cell line, photina luminescence, agonist Bz-ATP at EC50, average
Unit nM implied. Number only.

### Prompt Look up IC50 for this compound: `NS(=O)(=O)c1cc(NC(=O)Cc2ccccc2Cl)ccc1Oc1ccc(Cl)cc1`
### Response 129

### Prompt May I ask what IC50 has been recorded for `NS(=O)(=O)c1cc(NC(=O)Cc2ccccc2Cl)ccc1Oc1cccc(C(=O)N2CCCCC2)c1` ?
### Response 241

### Prompt Sample `Cc1ccc(Cl)c(CC(=O)Nc2ccc(Oc3cccc(Cl)c3)c(S(N)(=O)=O)c2)c1F` — what was its IC50?
### Response 218

### Prompt I am curious: what IC50 value has been reported for `N#CC1(COc2ccc(NC(=O)Cc3ccccc3Cl)cc2S(N)(=O)=O)CCOCC1` ?
### Response 1160

### Prompt Look up IC50: `NS(=O)(=O)c1cc(NC(=O)Cc2cc(OC(F)(F)C(F)F)ccc2Cl)ccc1Oc1cccc(Cl)c1`
### Response 1350

### Prompt # query: IC50 of entry `NS(=O)(=O)c1cc(NC(=O)Cc2cc3c(cc2Cl)OCCO3)ccc1Oc1cccc(Cl)c1`
### Response 185

### Prompt Field request: IC50 | item: `NS(=O)(=O)c1cc(NC(=O)Cc2ccccn2)ccc1Oc1cccc(Cl)c1`
### Response 567

### Prompt I'd like to know its IC50. The compound in question is `NS(=O)(=O)c1cc(NC(=O)Cc2ccccc2Cl)ccc1Oc1cccc(C(=O)NC2CC2)c1`
### Response 188

====

molecular target: P2X4 (Homo sapiens); test: Assay B: human P2X4 receptor cell line, mitochondrial photina luminescence (agonist Bz-ATP at EC50); format: cell-based; set-up: host or cells: HEK 293 (recombinant, constitutively expressing; with mitochondrial photina in Assay B); settings: HEK human P2X4 cell line, photina luminescence, agonist Bz-ATP at EC50, average
Measured Attribute: pIC50
Keep in mind that pIC50 stands for -log10 of concentration in molar terms.

### Prompt Report pIC50 for CN(C)C(=O)c1ccccc1CC(=O)Nc1ccc(Oc2cccc(Cl)c2)c(S(N)(=O)=O)c1 [Example 198] please.
### Response 5.32

### Prompt Request the reported pIC50 associated with NS(=O)(=O)c1cc(NC(=O)Cc2ccccc2)ccc1OCc1ccccc1 [Example 146]
### Response 6.50

### Prompt Param item = N#Cc1cccc(CC(=O)Nc2ccc(Oc3cccc(Cl)c3)c(S(N)(=O)=O)c2)c1 [Example 226] ; retrieve measured pIC50.
### Response 6.31

### Prompt Look up pIC50: NS(=O)(=O)c1cc(NC(=O)Cc2c(Cl)ccc(Cl)c2Cl)ccc1Oc1cccc(Cl)c1 [Example 125]
### Response 6.30

### Prompt Any idea what its pIC50 is? The molecule is NS(=O)(=O)c1cc(NC(=O)Cc2ccccc2Cl)ccc1OCc1cccc(Cl)c1 [Example 139]
### Response 7.37

### Prompt Fill in: pIC50 of Cc1cccc(CC(=O)Nc2ccc(Oc3cccc(Cl)c3)c(S(N)(=O)=O)c2)n1 [Example 189] is ___
### Response 6.37

### Prompt // lookup pIC50 for NS(=O)(=O)c1cc(NC(=O)Cc2ccccc2)ccc1Oc1ccc(Cl)cc1 [Example 077]
### Response 6.70

### Prompt # pIC50 lookup, item NS(=O)(=O)c1cc(NC(=O)Cc2ccccc2Cl)ccc1Oc1cccc(Cl)n1 [Example 040]
### Response 6.62

### Prompt Can you share its pIC50? I mean this molecule: NS(=O)(=O)c1cc(NC(=O)Cc2ccccc2Cl)ccc1Oc1cccc(N2CCOC2=O)c1 [Example 051]
### Response 6.91

### Prompt # get_value(readout='pIC50', item= Cc1ccccc1CC(=O)Nc1cc(F)c(Oc2cccc(Cl)c2)c(S(N)(=O)=O)c1 [Example 171] )
### Response 5.31

### Prompt Data request, read-out pIC50, for NS(=O)(=O)c1cc(NC(=O)C(F)(F)c2ccccc2Cl)ccc1Oc1cccc(Cl)c1 [Example 094]
### Response 6.70

### Prompt Look up pIC50: COCCOc1ccccc1CC(=O)Nc1ccc(Oc2cccc(Cl)c2)c(S(N)(=O)=O)c1 [Example 211]
### Response 6.39

### Prompt Which pIC50 value belongs to CN1CCCC(Oc2ccc(NC(=O)Cc3ccccc3Cl)cc2S(N)(=O)=O)C1 (centres unmarked) [Example 220] ?
### Response 5.42

### Prompt pIC50 lookup needed for NS(=O)(=O)c1cc(NC(=O)Cc2ccccc2Cl)ccc1OC1CCC1 [Example 205] , thanks.
### Response 6.40

### Prompt Entry NS(=O)(=O)c1cc(NC(=O)Cc2ccccc2Cl)ccc1OCc1ccccc1Cl [Example 144] : reported pIC50 = ?
### Response 6.89

### Prompt What measured pIC50 goes with NS(=O)(=O)c1cc(NC(=O)Cc2ccccc2Cl)ccc1OCCc1cccc(Cl)c1 [Example 156] ?
### Response 7.33

### Prompt # input molecule: NS(=O)(=O)c1cc(NC(=O)Cc2ccccc2Cl)ccc1Oc1cccc(Br)c1 [Example 059] ; wanted: its pIC50
### Response 7.12

====

Target: P2X4 (Homo sapiens)
Sequence (Q99571 1-388): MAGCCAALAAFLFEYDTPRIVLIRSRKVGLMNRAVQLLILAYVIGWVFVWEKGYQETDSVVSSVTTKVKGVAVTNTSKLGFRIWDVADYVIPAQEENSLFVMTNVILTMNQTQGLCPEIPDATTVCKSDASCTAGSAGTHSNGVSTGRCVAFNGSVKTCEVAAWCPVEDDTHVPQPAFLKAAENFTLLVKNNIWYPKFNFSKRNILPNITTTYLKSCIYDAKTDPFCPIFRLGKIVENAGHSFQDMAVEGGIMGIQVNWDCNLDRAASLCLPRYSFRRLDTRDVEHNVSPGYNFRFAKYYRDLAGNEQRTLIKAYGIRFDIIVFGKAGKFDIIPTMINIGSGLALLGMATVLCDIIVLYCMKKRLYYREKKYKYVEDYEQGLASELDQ
Experiment: Assay B: human P2X4 receptor cell line, mitochondrial photina luminescence (agonist Bz-ATP at EC50)
Format: cell-based
Design: host or cells: HEK 293 (recombinant, constitutively expressing; with mitochondrial photina in Assay B)
Settings: HEK human P2X4 cell line, photina luminescence, agonist Bz-ATP at EC50, average; read-out: human P2X4 Assay B avg Efficacy
Give measured Emax for each item. Keep answers brief.
Response body: numeric value in %, unit text excluded.

### Prompt Value wanted: Emax (P2X4 (Homo sapiens)) of entry `NS(=O)(=O)c1cc(NC(=O)Cc2ccccc2)cc(F)c1Oc1cccc(Cl)c1`
### Response 36

### Prompt Give Emax (P2X4 (Homo sapiens)) of the following compound: `NS(=O)(=O)c1cc(NC(=O)Cc2ccccc2Cl)ccc1Oc1cccc(C(F)F)c1`
### Response 71

### Prompt Please state recorded Emax (tested on P2X4 (Homo sapiens)) of `NS(=O)(=O)c1cc(NC(=O)Cc2ccc(C(F)(F)F)cc2Cl)ccc1Oc1cccc(Cl)c1`
### Response 45

### Prompt What is its Emax for P2X4 (Homo sapiens)? Entry: `NS(=O)(=O)c1cc(NC(=O)Cc2ccccc2SC(F)(F)F)ccc1Oc1cccc(Cl)c1`
### Response 71
